Assign pIC50 to each entry below.
Target: Glutamate carboxypeptidase 2 (Homo sapiens, UniProt Q04609)
Sequence (Q04609 whole entry): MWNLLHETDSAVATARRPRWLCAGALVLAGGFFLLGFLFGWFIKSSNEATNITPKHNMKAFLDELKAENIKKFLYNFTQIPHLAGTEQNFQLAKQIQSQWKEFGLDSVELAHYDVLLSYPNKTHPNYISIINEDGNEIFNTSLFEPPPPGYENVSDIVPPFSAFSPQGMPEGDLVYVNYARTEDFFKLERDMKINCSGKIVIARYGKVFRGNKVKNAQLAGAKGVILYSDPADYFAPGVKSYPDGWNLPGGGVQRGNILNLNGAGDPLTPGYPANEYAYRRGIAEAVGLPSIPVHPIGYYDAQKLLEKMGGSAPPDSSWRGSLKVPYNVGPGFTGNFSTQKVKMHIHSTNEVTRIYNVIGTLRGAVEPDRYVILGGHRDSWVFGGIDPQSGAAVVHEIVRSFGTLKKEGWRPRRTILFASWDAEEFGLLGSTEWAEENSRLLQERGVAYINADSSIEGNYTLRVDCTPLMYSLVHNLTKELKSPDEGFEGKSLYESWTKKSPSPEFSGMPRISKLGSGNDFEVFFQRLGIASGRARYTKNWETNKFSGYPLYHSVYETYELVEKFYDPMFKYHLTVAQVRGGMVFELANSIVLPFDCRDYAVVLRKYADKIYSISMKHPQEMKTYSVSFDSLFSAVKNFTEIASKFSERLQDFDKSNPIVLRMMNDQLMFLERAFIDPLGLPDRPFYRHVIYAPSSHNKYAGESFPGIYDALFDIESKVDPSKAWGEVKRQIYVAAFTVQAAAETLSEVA
Experiment: Inhibition of human recombinant GCP2 using N-acetyl-L-aspartyl[3H]-L-glutamate as substrate
Please keep in mind that pIC50 is minus log10 of the molar concentration; only the number is needed.

Query string: For the record "O=C(O)c1cccc(-c2cccc3c2C(=O)SCC3)c1" , what value of pIC50 is listed for Glutamate carboxypeptidase 2 (Homo sapiens, UniProt Q04609)?
Result string: 4.70

Query string: What do you get for O=C(O)CCC1CCCSC1=O (racemic) ?
Result string: 5.70
